The entries below come with measured IC50 values attached.
target: CCR1 (Homo sapiens, UniProt P32246); experiment: Method B: calcium flux in CCR1 transfected cells (Calcium 4 dye, […] FDSS6000), block of the CCR1/MIP-1α interaction; assay type: cell-based; conditions: Method B: Calcium 4 dye, MIP-1alpha at EC80
Sequence (P32246 whole entry): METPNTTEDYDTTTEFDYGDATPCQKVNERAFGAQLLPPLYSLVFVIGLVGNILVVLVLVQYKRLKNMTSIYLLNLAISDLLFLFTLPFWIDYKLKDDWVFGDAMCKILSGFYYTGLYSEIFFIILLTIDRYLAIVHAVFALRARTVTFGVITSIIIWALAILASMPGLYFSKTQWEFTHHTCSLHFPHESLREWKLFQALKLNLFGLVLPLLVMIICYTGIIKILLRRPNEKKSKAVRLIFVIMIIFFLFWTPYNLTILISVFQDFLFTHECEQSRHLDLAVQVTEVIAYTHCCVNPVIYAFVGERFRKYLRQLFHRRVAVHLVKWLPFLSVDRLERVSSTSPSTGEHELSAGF
Report only the number, with the unit nM understood.

Recorded IC50, per entry:
CC[C@H](NC(=O)c1cncc2c1cnn2-c1ccc(F)cc1)c1cccc(S(=O)(=O)CC)n1	0.5
C[C@H](NC(=O)c1cncc2c1cnn2-c1ccc(F)cc1)c1cccc(S(N)(=O)=O)n1	15
CC[C@H](NC(=O)c1cncc2c1cnn2-c1ccc(F)cc1)c1ccnc(S(=O)(=O)CCC(=O)OC)c1	1
CC[C@H](NC(=O)c1cncc2c1cnn2-c1ccc(F)cc1)c1ccnc(CO)c1	3
CC[C@H](NC(=O)c1cncc2c1cnn2-c1ccc(F)cc1)c1nc(C(=O)NC)cs1	3

Task: Report IC50 for CCC(NC(=O)c1cncc2c1cnn2-c1ccc(F)cc1)c1nc(C(=O)NCC#N)c(C)o1 (stereo not drawn) please.
Result: 18

Task: Reported IC50 for `CC[C@H](NC(=O)c1cncc2c1cnn2-c1ccc(F)cc1)c1c[nH]c(S(C)(=O)=O)c1` : what is it?
Result: 0.9

Task: Field request: IC50 | item: `CC[C@H](NC(=O)c1cncc2c1cnn2-c1ccc(F)cc1)c1cccc(S(N)(=O)=O)n1`
Result: 0.3

Task: Please give the measured IC50 for this molecule: `CC[C@H](NC(=O)c1cncc2c1cnn2-c1ccc(F)cc1)c1nc(Br)cs1`
Result: 0.8

Task: Requested field: IC50. Item: `COC[C@H](NC(=O)c1cncc2c1cnn2-c1ccc(F)cc1)c1ccnc(S(C)(=O)=O)c1`
Result: 1
